The measured values listed here are drawn from patent US10457707B2.

MIC by entry:
- Tested on: Streptococcus pyogenes, ATCC 700294
- measurement-description: Minimal inhibitory concentration assay (microbroth dilution)
- Format: cell-based
- assay-context: Streptococcus pyogenes, ATCC700294; read-out: Minimal Inhibitory Concentrations S. pyogenes ATCC 700294
*1 amine or outer side, *2 acyl side, *3 side chain or, on linkers, in order; H or OH if unused. Where a SMILES comes first, the peptide text is derived from it. Bridges are numbered along the chain shown (N, C = ends). [ ]: non-standard residue; d: D form. The star is where a group is joined. ξ: configuration not given here. NH(1,3-benzodioxol-5-yl) = c1cc2c(cc1N*)OCO2; Phe(3,5-F2) = N[C@@H](Cc1cc(F)cc(F)c1)C(=O)O; NH(4-OCF3-phenyl) = FC(F)(F)Oc1ccc(N*)cc1; Morpholine(3S-CO) = O=C(O)[C@@H]1COCCN1; NH(4-Cl-2-F-phenyl) = Fc1cc(Cl)ccc1N*; Pro(4R-Me) = C[C@H]1CN[C@H](C(=O)O)C1; ξPro(4R-OH) = O=C(O)C1C[C@@H](O)CN1; ξPro(4S-Me) = C[C@@H]1CNC(C(=O)O)C1; Hyp = O=C(O)[C@@H]1C[C@@H](O)CN1; NH(4-Et-phenyl) = CCc1ccc(N*)cc1; NMeT = CN[C@H](C(=O)O)[C@@H](C)O; Heptenoyl(2E) = CCCC/C=C/C(=O)*; aThr = C[C@H](O)[C@H](N)C(=O)O; Pip = O=C(O)[C@@H]1CCCCN1; NMeA = CN[C@@H](C)C(=O)O; CO = O=C([*:1])[*:2]; ξP = O=C(O)C1CCCN1
readout-kind: MIC (µM)

compound="C[C@@H]1C[C@H]2C(=O)O[C@@H](C)[C@H](NC(=O)[C@H](Cc3cc(F)cc(F)c3)NC(=O)Nc3ccc(Cl)cc3F)C(=O)N3CCC[C@H]3C(=O)N3CCOC[C@H]3C(=O)N[C@@H](C)C(=O)N2C1 [Compound 314] ({NH(4-Cl-2-F-phenyl)-CO}-[Phe(3,5-F2)][aThr]P[Morpholine(3S-CO)]A[Pro(4R-Me)]; ester 2-C)" assay_system="Streptococcus pyogenes, ATCC 700294" readout_kind=MIC value_qualifier=< measured_number=0.02
compound="C[C@@H]1C[C@H]2C(=O)O[C@@H](C)[C@H](NC(=O)[C@H](Cc3cc(F)cc(F)c3)NC(=O)Nc3ccc(OC(F)(F)F)cc3)C(=O)N3CCC[C@H]3C(=O)N(C)[C@@H]([C@@H](C)O)C(=O)N[C@@H](C)C(=O)N2C1 [Compound 41] ({NH(4-OCF3-phenyl)-CO}-[Phe(3,5-F2)][aThr]P[NMeT]A[Pro(4R-Me)]; ester 2-C)" assay_system="Streptococcus pyogenes, ATCC 700294" readout_kind=MIC value_qualifier== measured_number=0.1
compound="CCCC/C=C/C(=O)N[C@@H](Cc1cc(F)cc(F)c1)C(=O)N[C@@H]1C(=O)N2CCC[C@H]2C(=O)N2CCCC[C@H]2C(=O)N[C@@H](C)C(=O)N2CCC[C@H]2C(=O)O[C@H]1C [ADEP 2719, reference compound] ({Heptenoyl(2E)}-[Phe(3,5-F2)][aThr]P[Pip]AP; ester 2-C)" assay_system="Streptococcus pyogenes, ATCC 700294" readout_kind=MIC value_qualifier=< measured_number=0.2
compound="C[C@@H]1C[C@H]2C(=O)O[C@@H](C)[C@H](NC(=O)[C@H](Cc3cc(F)cc(F)c3)NC(=O)Nc3ccc(Cl)cc3F)C(=O)N3CCC[C@H]3C(=O)N3CCCC[C@H]3C(=O)N[C@@H](C)C(=O)N2C1 [Compound 307] ({NH(4-Cl-2-F-phenyl)-CO}-[Phe(3,5-F2)][aThr]P[Pip]A[Pro(4R-Me)]; ester 2-C)" assay_system="Streptococcus pyogenes, ATCC 700294" readout_kind=MIC value_qualifier== measured_number=0.156
compound="CCCC/C=C/C(=O)N[C@@H](Cc1cc(F)cc(F)c1)C(=O)N[C@@H]1C(=O)N2CCC[C@H]2C(=O)N(C)[C@@H]([C@@H](C)O)C(=O)N[C@@H](C)C(=O)N2C[C@H](C)C[C@H]2C(=O)O[C@H]1C [Compound 308] ({Heptenoyl(2E)}-[Phe(3,5-F2)][aThr]P[NMeT]A[Pro(4R-Me)]; ester 2-C)" assay_system="Streptococcus pyogenes, ATCC 700294" readout_kind=MIC value_qualifier=< measured_number=0.02
compound="C[C@@H]1C[C@H]2C(=O)O[C@@H](C)[C@H](NC(=O)[C@H](Cc3cc(F)cc(F)c3)NC(=O)Nc3ccc4c(c3)OCO4)C(=O)N3CCC[C@H]3C(=O)N(C)[C@@H]([C@@H](C)O)C(=O)N[C@@H](C)C(=O)N2C1 [Compound 197] ({NH(1,3-benzodioxol-5-yl)-CO}-[Phe(3,5-F2)][aThr]P[NMeT]A[Pro(4R-Me)]; ester 2-C)" assay_system="Streptococcus pyogenes, ATCC 700294" readout_kind=MIC value_qualifier== measured_number=0.039
compound="C[C@H]1CC2C(=O)O[C@@H](C)[C@H](NC(=O)[C@H](Cc3cc(F)cc(F)c3)NC(=O)Nc3ccc(OC(F)(F)F)cc3)C(=O)N3C[C@H](O)CC3C(=O)N(C)[C@@H](C)C(=O)N[C@@H](C)C(=O)N2C1 (stereo partly drawn) [Compound 32] ({NH(4-OCF3-phenyl)-CO}-[Phe(3,5-F2)][aThr][ξPro(4R-OH)][NMeA]A[ξPro(4S-Me)]; ester 2-C)" assay_system="Streptococcus pyogenes, ATCC 700294" readout_kind=MIC value_qualifier== measured_number=0.2
compound=CCc1ccc(NC(=O)N[C@@H](Cc2cc(F)cc(F)c2)C(=O)N[C@H]2COC(=O)[C@@H]3C[C@@H](C)CN3C(=O)[C@H](C)NC(=O)[C@@H]3CCCCN3C(=O)[C@@H]3CCCN3C2=O)cc1 assay_system="Streptococcus pyogenes, ATCC 700294" readout_kind=MIC value_qualifier== measured_number=0.8
compound="CCCC/C=C/C(=O)N[C@@H](Cc1cc(F)cc(F)c1)C(=O)N[C@@H]1C(=O)N2C[C@H](O)C[C@H]2C(=O)N2CCOC[C@H]2C(=O)N[C@@H](C)C(=O)N2C[C@H](C)C[C@H]2C(=O)O[C@H]1C [Compound 309] ({Heptenoyl(2E)}-[Phe(3,5-F2)][aThr][Hyp][Morpholine(3S-CO)]A[Pro(4R-Me)]; ester 2-C)" assay_system="Streptococcus pyogenes, ATCC 700294" readout_kind=MIC value_qualifier=< measured_number=0.02
compound="C[C@@H]1NC(=O)[C@H](C)N(C)C(=O)[C@@H]2CCCN2C(=O)[C@@H](NC(=O)[C@H](Cc2ccccc2)NC(=O)Nc2ccc(OC(F)(F)F)cc2)COC(=O)C2CCCN2C1=O (stereo partly drawn) [Compound 213] ({NH(4-OCF3-phenyl)-CO}-FSP[NMeA]A[ξP]; ester 2-C)" assay_system="Streptococcus pyogenes, ATCC 700294" readout_kind=MIC value_qualifier== measured_number=0.39
compound="C[C@@H]1C[C@H]2C(=O)O[C@@H](C)[C@H](NC(=O)[C@H](Cc3cc(F)cc(F)c3)NC(=O)Nc3ccc(Cl)cc3F)C(=O)N3C[C@H](O)C[C@H]3C(=O)N3CCCC[C@H]3C(=O)N[C@@H](C)C(=O)N2C1 [Compound 329] ({NH(4-Cl-2-F-phenyl)-CO}-[Phe(3,5-F2)][aThr][Hyp][Pip]A[Pro(4R-Me)]; ester 2-C)" assay_system="Streptococcus pyogenes, ATCC 700294" readout_kind=MIC value_qualifier== measured_number=0.078
compound="CCc1ccc(NC(=O)N[C@@H](Cc2cc(F)cc(F)c2)C(=O)N[C@@H]2C(=O)N3C[C@H](O)C[C@H]3C(=O)N3CCCC[C@H]3C(=O)N[C@@H](C)C(=O)N3C[C@H](C)C[C@H]3C(=O)O[C@H]2C)cc1 [Compound 211] ({NH(4-Et-phenyl)-CO}-[Phe(3,5-F2)][aThr][Hyp][Pip]A[Pro(4R-Me)]; ester 2-C)" assay_system="Streptococcus pyogenes, ATCC 700294" readout_kind=MIC value_qualifier=< measured_number=0.2
